Origin of the recorded values: ChEMBL document CHEMBL1155741

- assayed.target: Squalene monooxygenase (Rattus norvegicus, UniProt P52020)
- Sequence (P52020 whole entry, the tested form may be a part): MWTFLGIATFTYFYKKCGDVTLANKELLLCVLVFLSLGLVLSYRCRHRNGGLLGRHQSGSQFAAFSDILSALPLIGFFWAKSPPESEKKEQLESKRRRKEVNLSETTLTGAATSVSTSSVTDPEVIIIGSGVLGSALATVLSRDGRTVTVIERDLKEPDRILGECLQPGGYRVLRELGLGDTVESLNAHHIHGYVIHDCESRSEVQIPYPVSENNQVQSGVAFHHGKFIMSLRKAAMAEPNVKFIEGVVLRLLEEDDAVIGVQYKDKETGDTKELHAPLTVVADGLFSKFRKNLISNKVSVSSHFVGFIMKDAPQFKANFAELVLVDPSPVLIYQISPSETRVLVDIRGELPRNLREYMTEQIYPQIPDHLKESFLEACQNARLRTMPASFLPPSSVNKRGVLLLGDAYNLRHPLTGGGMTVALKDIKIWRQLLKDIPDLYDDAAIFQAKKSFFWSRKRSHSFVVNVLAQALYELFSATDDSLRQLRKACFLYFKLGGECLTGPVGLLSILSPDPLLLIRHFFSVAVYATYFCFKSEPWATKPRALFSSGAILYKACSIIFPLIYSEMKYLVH
- experimental.protocol: Inhibition of rat squalene epoxidase
readout.label: IC50 (nM)

Example results:
O=C(O[C@@H]1Cc2c(O)cc(O)cc2O[C@@H]1c1cc(O)c(O)c(O)c1-c1c([C@H]2Oc3cc(O)cc(O)c3C[C@H]2OC(=O)c2cc(O)c(O)c(O)c2)cc(O)c(O)c1O)c1cc(O)c(O)c(O)c1 [THEASINENSIN A] ... 130
O=C(O[C@@H]1[C@@H](c2c(O)cc(O)c3c2O[C@H](c2ccc(O)c(O)c2)[C@H](OC(=O)c2cc(O)c(O)c(O)c2)C3)c2c(O)cc(O)cc2O[C@@H]1c1ccc(O)c(O)c1)c1cc(O)c(O)c(O)c1 ... 540

(1) O=C(OC[C@H]1O[C@@H](OC(=O)c2cc(O)c(O)c(O)c2)[C@H](OC(=O)c2cc(O)c(O)c(O)c2)[C@@H](O)[C@@H]1O)c1cc(O)c(O)c(O)c1
(2) CC(C)=CCC/C(C)=C/CC/C(C)=C/CC/C=C(\C)CC/C=C(\C)CCC=C(F)F [TRISNORSQUALENE DIFLUOROMETHYLIDENE]
Problem: Returns: the label, 1 or 2 , whose recorded IC50 is the lower number. I would appreciate it if you answered with the label of your choice.
Solution: 1
(1: 630 nM, 2: 5400 nM)

* * *

- assayed.target: Squalene monooxygenase (Rattus norvegicus, UniProt P52020)
- experimental.protocol: Inhibition of C-terminal hexahistidine-tagged rat recombinant squalene epoxidase without N-terminal putative membrane domain expressed in Escherichia coli
pIC50: −log10 of the molar value.
readout.label: pIC50

Use the examples below as a reference point.
CCCCCCOC(=O)c1cc(O)c(O)c(O)c1-c1c(C(=O)OCCCCCC)cc(O)c(O)c1O ... 6.03
COC(=O)c1cc(O)c(O)c(O)c1-c1c(C(=O)OC)cc(O)c(O)c1O ... 4.79
CCCCCCCCOC(=O)c1cc(O)c(O)c(O)c1-c1c(C(=O)OCCCCCCCC)cc(O)c(O)c1O ... 6.08
O=C(O[C@@H]1O[C@@H]2COC(=O)c3cc(O)c(O)c(O)c3-c3c(cc(O)c(O)c3O)C(=O)O[C@H]([C@H]1O)[C@@H]2O)c1cc(O)c(O)c(O)c1 ... 5.40

(I) CCOC(=O)c1cc(O)c(O)c(O)c1 [ETHYLGALLATE]
(II) CCCCCCCCCCCCCCCCOC(=O)c1cc(O)c(O)c(O)c1 [HEXADECYL GALLATE]
(III) O=C(O[C@@H]1O[C@@H]2COC(=O)c3cc(O)c(O)c(O)c3-c3c(cc(O)c(O)c3O)C(=O)O[C@H]2[C@@H]2OC(=O)c3cc(O)c(O)c(O)c3-c3c(cc(O)c(O)c3O)C(=O)O[C@@H]12)c1cc(O)c(O)c(O)c1
Problem: Task for the reader: rank each entry by its pIC50, from the minimum upward. Please write the labels in the order that was asked for.
Solution: III, I, II
